Give pIC50 for every item shown.
Target: cSrc (Homo sapiens)
Experiment: c-Src enzyme inhibition (FRET)
Assay type: biochemical
Settings: Table 4a1
Description: The enzyme inhibitory activities of compounds disclosed herein are determined by FRET using synthetic peptides labelled with both donor and acceptor fluorophores (Z-LYTE, Invitrogen Ltd., Paisley, UK). The relevant enzyme (3000 ng/mL or 2000 ng/mL respectively, 2.5 μL) is incubated with the test compound (either 4 μg/mL, 0.4 μg/mL, 0.04 μg/mL, or 0.004 μg/mL, 2.5 μL each) for 2 hr at RT. […]
Note on units: pIC50 is unitless, being -log10 of a concentration expressed in mol/L.

Task item: Endpoint output: pIC50 of `COc1cc(Nc2nccc(Oc3ccc(NC(=O)Nc4cc(C(C)C)nn4-c4ccc(C)cc4)c4ccccc34)n2)cc(C(=O)NCCN(C)C)c1` . Value?
Reply: 8.70

Task item: Quick check: pIC50 of `COc1cc(Nc2nccc(Oc3ccc(NC(=O)Nc4cc(C(C)(C)C)nn4-c4ccc(C)cc4)c4ccccc34)n2)cc(C(=O)NCCO)c1` ?
Reply: 8.70

Task item: Reported pIC50, compound `COc1ccc(-n2nc(C(C)C)cc2NC(=O)Nc2ccc(Oc3ccnc(Nc4cc(OC)cc(C(=O)NCCN5CCOCC5)c4)c3)c3ccccc23)cc1` : ____
Reply: 8.40

###

molecular target: Syk (Homo sapiens); experiment: Syk enzyme inhibition (FRET); assay type: biochemical; settings: Table 4a1
What pIC50 was measured for each of the following?
Just so you know, pIC50 here is -log10 of the concentration in molar units; reply with that number alone.

Task item: Any idea what pIC50 was measured for CNC(=O)c1cccc(Nc2nccc(Oc3ccc(NC(=O)Nc4cc(C(C)(C)C)nn4-c4ccc(C)cc4)c4ccccc34)n2)c1 [Example 16] ?
Reply: 5.86

Task item: Look up pIC50 for this compound: COc1cc(Nc2nccc(Oc3ccc(NC(=O)Nc4cc(C(C)C)nn4-c4ccc(C)cc4)c4ccccc34)n2)cc(C(=O)N2CCN(C)CC2)c1 [Example 69]
Reply: 8.10

Task item: I have this compound here, COc1ccc(-n2nc(C3CCCO3)cc2NC(=O)Nc2ccc(Oc3ccnc(Nc4cc(OC)cc(C(=O)NCCN5CCOCC5)c4)n3)c3ccccc23)cc1 (stereo not drawn) [Example 58] , and I need its recorded pIC50.
Reply: 6.53

###

Consider the following compounds; for each one, report its IC50.
biological target: cSrc (Homo sapiens, UniProt P12931); assay: c-Src enzyme inhibition (FRET); type: biochemical; settings: Table 4a2, different laboratory
Sequence (P12931 whole entry): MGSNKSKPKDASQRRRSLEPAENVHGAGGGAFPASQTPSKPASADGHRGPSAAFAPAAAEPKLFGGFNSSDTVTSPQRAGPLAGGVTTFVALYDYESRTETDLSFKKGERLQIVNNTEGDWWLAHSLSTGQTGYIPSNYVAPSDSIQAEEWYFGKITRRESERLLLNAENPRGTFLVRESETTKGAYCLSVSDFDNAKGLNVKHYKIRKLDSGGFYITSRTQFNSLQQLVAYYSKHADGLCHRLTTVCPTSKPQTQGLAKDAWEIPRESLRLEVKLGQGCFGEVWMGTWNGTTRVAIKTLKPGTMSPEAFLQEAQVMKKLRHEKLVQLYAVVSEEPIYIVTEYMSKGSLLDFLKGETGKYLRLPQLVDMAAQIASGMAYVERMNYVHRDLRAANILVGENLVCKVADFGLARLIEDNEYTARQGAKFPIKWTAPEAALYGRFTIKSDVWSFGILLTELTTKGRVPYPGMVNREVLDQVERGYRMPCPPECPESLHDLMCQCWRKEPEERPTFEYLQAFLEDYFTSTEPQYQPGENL
Numeric only. Scale: nM

Task item: Any idea what its IC50 is? The compound is `C#Cc1cc(Nc2nccc(Oc3ccc(NC(=O)Nc4cc(C(C)C)nn4-c4ccc(C)cc4)c(Cl)c3Cl)n2)cc(C(=O)NCCN2CCOCC2)c1`
Reply: 22

Task item: Data request, read-out IC50, for `C#Cc1cc(Nc2nccc(Oc3ccc(NC(=O)Nc4cc(C(C)(C)C)nn4-c4ccc(C)cc4)c4ccccc34)n2)cc(C(=O)NCCN2CCOCC2)c1`
Reply: 11

Task item: Fill in: IC50 of `COCCNC(=O)c1cc(Nc2nccc(Oc3ccc(NC(=O)Nc4cc(C(C)C)nn4-c4ccc(OC)cc4)c4ccccc34)n2)cc(OC)c1` is ___
Reply: 15

Task item: Entry under review: `C#Cc1cc(Nc2nccc(Oc3ccc(NC(=O)Nc4cc(C(C)(C)C#N)nn4-c4ccc(C)cc4)c4ccccc34)n2)cc(C(=O)NCCN2CCOCC2)c1` . Reported IC50?
Reply: 8

Task item: Using the record for `C#Cc1cc(Nc2nccc(Oc3ccc(NC(=O)Nc4cc(C(C)(C)C)nn4-c4ccc(N(C)C)cc4)c4ccccc34)n2)cc(C(=O)NCCN2CCOCC2)c1` , report its IC50.
Reply: 19

Task item: IC50 lookup needed for `C#Cc1cc(Nc2nccc(Oc3ccc(NC(=O)Nc4cc(C(C)(C)C)nn4-c4ccc(OC)cc4)c4ccccc34)n2)cc(C(=O)N[C@@H](C)COC)c1` , thanks.
Reply: 33

Task item: Suppose we examine the compound `C#Cc1cc(Nc2nccc(Oc3ccc(NC(=O)Nc4cc(C(C)(C)C)nn4-c4ccc(OC)cc4)c4ccccc34)n2)cc(C(=O)NCCN2CCOCC2)c1` ; what IC50 value has been reported?
Reply: 12

Task item: What value of IC50 has been recorded for this entry: `C#Cc1cc(Nc2nccc(Oc3ccc(NC(=O)Nc4cc(C(C)(C)C)nn4-c4ccc(C)cc4)c4ccccc34)n2)cc(C(=O)N[C@@H](C)CN2CCOCC2)c1`
Reply: 21

Task item: # get_value(readout='IC50', item= `COc1cc(Nc2nccc(Oc3ccc(NC(=O)Nc4cc(C(C)C)nn4-c4ccc(C)cc4)c4ccccc34)n2)cc(C(=O)NCCN2CCOCC2)c1` )
Reply: 41

Task item: # input compound: `C#Cc1cc(Nc2nccc(Oc3ccc(NC(=O)Nc4cc(C(C)C)nn4-c4ccc(C)cc4)c4ccccc34)n2)cc(C(=O)NCCN2CCOCC2)c1` ; wanted: its IC50
Reply: 14

Task item: For the compound shown here, `Cc1ccc(-n2nc(C(C)C)cc2NC(=O)Nc2ccc(Oc3ccnc(Nc4cc(C(=O)NCCN5CCOCC5)cc(C(F)(F)F)c4)n3)c3ccccc23)cc1` , give the reported IC50.
Reply: 27

Task item: Given the compound `C#Cc1cc(Nc2nccc(Oc3ccc(NC(=O)Nc4cc(C(C)(C)C(F)(F)F)nn4-c4ccc(C)cc4)c4ccccc34)n2)cc(C(=O)NCCN2CCOCC2)c1` , what is its reported IC50?
Reply: 45

###

For each record, write down the corresponding IC50.
molecular target: GSK3α (Homo sapiens); experiment: GSK 3α enzyme inhibition (FRET), Method 1; assay type: biochemical; settings: Table 4a1
Please provide the amount together with its unit, number first.

Task item: Request body: readout IC50, system GSK3α (Homo sapiens), query `CCCNC(=O)c1cccc(Nc2nccc(Oc3ccc(NC(=O)Nc4cc(C(C)(C)C)nn4-c4ccc(OC)cc4)c4ccccc34)n2)c1` . Return the value.
Reply: 309 nM

Task item: Which measured IC50 belongs to `COc1ccc(-n2nc(C(C)C)cc2NC(=O)Nc2ccc(Oc3ccnc(Nc4cc(OC)cc(C(=O)NCCN5CCOCC5)c4)c3)c3ccccc23)cc1` , tested on GSK3α (Homo sapiens)?
Reply: 3180 nM

Task item: What value of IC50 on GSK3α (Homo sapiens) does `COc1ccc(-n2nc(C(C)C)cc2NC(=O)Nc2ccc(Oc3ccnc(Nc4cccc(C(=O)NCCN5CCOCC5)c4)n3)c3ccccc23)cc1` have?
Reply: 317 nM

###

Would you mind telling me the reported microsomal CLint at 0.1 μM of each entry?
assay: Hepatic microsomal stability; assay type: in vitro ADME; details: pooled liver microsomes; dog hepatic microsomes; arithmetic mean of two experiments; read-out: Mean intrinsic clearance
Write down the numeric answer in µL/min/mg and omit the unit.

Task item: Entry C#Cc1cc(Nc2nccc(Oc3ccc(NC(=O)Nc4cc(C(C)(C)C)nn4-c4ccc(N(C)C)cc4)c4ccccc34)n2)cc(C(=O)NCCN2CCOCC2)c1 [Example 80] has what microsomal CLint at 0.1 μM?
Reply: 146

Task item: Query (molecule): C#Cc1cc(Nc2nccc(Oc3ccc(NC(=O)Nc4cc(C(C)(C)C)nn4-c4ccc(OC)cc4)c4ccccc34)n2)cc(C(=O)NCCN2CCOCC2)c1 [Example 77] ; field requested: microsomal CLint at 0.1 μM
Reply: 189

###

Can you tell me pIC50 for the items I'm about to list?
target: UniProt P12931; assay: c-Src enzyme inhibition (FRET); format: biochemical; conditions: Table 4a1
Note on pIC50: it is the negative log10 of concentration, concentration in mol/L.

Task item: Quick check: pIC50 of `COc1ccc(-n2nc(C(C)C)cc2NC(=O)Nc2ccc(Oc3ccnc(Nc4cc(OC)cc(C(=O)NCCO)c4)n3)c3ccccc23)cc1` ?
Reply: 8.10

Task item: Item under review: `COCCNC(=O)c1cc(Nc2nccc(Oc3ccc(NC(=O)Nc4cc(C(C)C)nn4-c4ccc(OC)cc4)c4ccccc34)n2)cc(OC)c1` . Reported pIC50?
Reply: 8.10

Task item: What value of pIC50 has been recorded for this entry: `COCCNC(=O)c1cc(Nc2nccc(Oc3ccc(NC(=O)Nc4cc(C(C)C)nn4-c4ccc(C)cc4)c4ccccc34)n2)cc(OC)c1`
Reply: 8.22

Task item: # query: pIC50 of entry `COc1cc(Nc2cc(Oc3ccc(NC(=O)Nc4cc(C(C)(C)C)nn4-c4ccc(C)cc4)c4ccccc34)ncn2)cc(C(=O)NCCN2CCOCC2)c1`
Reply: 8.40

###

Answer each item with its documented IC50.
target: GSK3α (Homo sapiens, UniProt P49840); experiment: GSK 3α enzyme inhibition (FRET), Method 1; type: biochemical; conditions: Table 4a1
Sequence (P49840 whole entry): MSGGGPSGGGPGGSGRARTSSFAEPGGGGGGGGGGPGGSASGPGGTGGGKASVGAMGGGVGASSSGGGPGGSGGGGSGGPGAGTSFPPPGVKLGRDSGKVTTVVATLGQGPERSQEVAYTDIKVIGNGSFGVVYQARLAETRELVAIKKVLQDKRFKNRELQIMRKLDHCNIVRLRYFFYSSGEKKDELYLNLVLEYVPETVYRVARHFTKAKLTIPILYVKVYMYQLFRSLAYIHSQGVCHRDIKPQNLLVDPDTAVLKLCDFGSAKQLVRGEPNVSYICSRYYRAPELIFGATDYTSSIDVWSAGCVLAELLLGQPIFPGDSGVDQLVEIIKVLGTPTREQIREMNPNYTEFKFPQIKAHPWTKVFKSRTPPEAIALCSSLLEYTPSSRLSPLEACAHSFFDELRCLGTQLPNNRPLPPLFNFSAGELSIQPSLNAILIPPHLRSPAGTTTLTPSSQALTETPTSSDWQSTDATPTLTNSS

Task item: Reported IC50 for `COc1cc(Nc2nccc(Oc3ccc(NC(=O)Nc4cc(C5CC5)nn4-c4ccc(C)cc4)c4ccccc34)n2)cc(C(=O)NCCN2CCOCC2)c1` : what is it?
Reply: > 13.3 µM

Task item: Record request: IC50 value, item `Cc1ccc(-n2nc(C(C)(C)C)cc2NC(=O)Nc2ccc(Oc3ccnc(Nc4cccc(C(=O)N5CCOCC5)c4)n3)c3ccccc23)cc1`
Reply: 0.311 µM

Task item: Report IC50 for `COc1cc(Nc2nccc(Oc3ccc(NC(=O)Nc4cc(C(F)(F)F)nn4-c4ccc(C)cc4)c4ccccc34)n2)cc(C(=O)NCCN2CCOCC2)c1` please.
Reply: > 12.8 µM
